assay: autophagy modulators in MEF cells, primary screen, imaging, high-content, MEF GFP-LC3 (AID 463193); settings: MEF GFP-LC3 puncta imaging, at 10 µM; measured here: cell loss, nuclei count;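 also: cell loss after 18 h compound exposure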
The campaign covered roughly 190,000 compounds. About 1,900 (1%) were called active. The entries come from a sample that favours actives as a whole.
reported endpoint: toxicity (%)

1. CC(C)NC(=O)NC(=O)CSc1nnc(-c2ccccc2F)n1N -3.54
2. COc1ccc(OC)c(N=Cc2c(O)[nH]c3ccccc23)c1 10.8
3. CCN(CC)S(=O)(=O)c1cc([N+](=O)[O-])ccc1N=Nc1c(O)n(C)c2ccccc12 2.86
4. Cc1ccc(NC(=O)CN2CCCCC2)c2c1CC(C)(C)O2 -23.6
5. COc1ccc(N2CCN(c3ccc([N+](=O)[O-])nc3)CC2)cc1 4.08
6. O=C(CSc1ncnc2c1nnn2Cc1ccc(F)cc1)NC1CCCC1 3.4
7. COc1ccc(OC)c(NC(=O)CN2CCN(C(=O)c3ccco3)CC2)c1 2.86
8. O=C(CN1C(=O)/C(=C/c2ccccc2F)Sc2ccccc21)NCc1cccnc1 -0.091
9. COc1ccc(CC(=O)Nc2ccc(C(=O)NC(C)(C)C)cc2)cc1 -0.0115
10. COc1ccc(CC(=O)NCc2nnc(SCC(=O)Nc3ncc(C)s3)n2C)cc1 -3.03
11. C=CCNC(=O)CC12CC3CC(C1)CC(CC(=O)NCC=C)(C3)C2 16.8
12. CCO[C@@H]1OC(C(N)=O)=C[C@H](c2ccc(Br)cc2)[C@H]1CCCO 10.9

====

experiment: autophagy modulators in MEF cells, primary screen, imaging, high-content, MEF GFP-LC3 (AID 463193); conditions: MEF GFP-LC3 puncta imaging, at 10 µM; measured here: cell loss, nuclei count;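 also: cell loss after 18 h compound exposure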
The whole screen tested about 190,000 compounds, of which about 1,900 (1%) were called active. The full list was thinned out, with actives kept by preference.

compound	toxicity / %
Cc1ccc(Nc2nc(CSc3nnnn3-c3ccccc3)cc(=O)[nH]2)cc1	2.22
COc1ccc(C)c(Cn2c(-c3nonc3N)nc3ccccc32)c1	49.2
N#Cc1c(-c2ccc(F)cc2)cc(C2CC2)nc1SCC(=O)c1cccs1	-1.55
Cc1cn(C)c(=O)n(C)c1=O	10.3
CCOC(=O)CSc1nc2c(sc(=S)n2CCc2ccccc2)c(=O)n1Cc1ccco1	36.2
O=C(NCc1ccncc1)C(=O)NCc1ccco1	-9.14
CCCCCC1CCC(c2nnc(SCC(C)=O)o2)CC1 (stereo unspecified)	-6.19
Cc1ccc(S(=O)(=O)NCCN2CCOCC2)cc1C	15.4
COc1ccc(C(=O)Nc2cccc(S(C)(=O)=O)c2)cc1	2.69
CCc1ccc2c(c1)cc(CN(C(=S)Nc1ccccc1Cl)C1CC1)c1nnnn12	11.8
Cc1ccc(NC(=O)C(=O)NCc2ccc(/C=N/NC(=O)c3c(C)nc4cc(C)ccn34)o2)cc1	-9.46

====

assay: autophagy modulators in MEF cells, primary screen, imaging, high-content, MEF GFP-LC3 (AID 463193); conditions: MEF GFP-LC3 puncta imaging, at 10 µM; measured here: cell loss, nuclei count;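 also: cell loss after 18 h compound exposure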
The whole screen tested about 190,000 compounds, of which about 1,900 (1%) were called active. This excerpt belongs to a sample that is enriched for actives.

compound	toxicity (%)
CC(=O)n1c(C=Nc2ccccc2)c(O)c2ccccc21	-16
O=C(O)c1cccc(N=NN2CCCCCC2)c1	-1.54
CCCOc1ccc(NC(=O)C2OC3OC(C)(C)OC3C3OC(C)(C)OC23)cc1 (configuration not stated)	-25.3
CCC(=O)c1ccc(OCC(O)CN2CC(C)OC(C)C2)cc1 (configuration not stated)	-8.47
Cc1cccc(-n2ncc3c(N4CCc5ccccc54)ncnc32)c1	-9.01
COc1ccc(-n2ncc3c(N4CCc5ccccc54)ncnc32)cc1	12.2
COc1ccc(-n2ncc3c(N4CCCc5ccccc54)ncnc32)cc1	7.86
CC(=O)c1ccc(Oc2cc(C)nc(-n3nc(C)cc3C)n2)cc1	52.9
O=c1[nH]c(=S)[nH]c2[nH]c(=S)[nH]c12	14.2
Cc1nn(C)c(Oc2ccccc2)c1[N+](=O)[O-]	-3.54
CC/C(=N/Nc1ccccc1)c1cnnc(SC)n1	-12.6
O=C(COc1ccc(Cl)cc1)N1CCN(c2cccc(C(F)(F)F)c2)CC1	-3.29

Entry source: PubChem BioAssay AID463193
